subjectOfTest: SMARCA4-HiBiT (Homo sapiens, UniProt P51532)
Construct: SMARCA4-HiBiT knock-in Hela monoclonal cell (CS3023226); host or cells: HeLa monoclonal knock-in line (CRISPR HiBiT knock-in at the endogenous locus, heterozygous)
Sequence (P51532 whole entry): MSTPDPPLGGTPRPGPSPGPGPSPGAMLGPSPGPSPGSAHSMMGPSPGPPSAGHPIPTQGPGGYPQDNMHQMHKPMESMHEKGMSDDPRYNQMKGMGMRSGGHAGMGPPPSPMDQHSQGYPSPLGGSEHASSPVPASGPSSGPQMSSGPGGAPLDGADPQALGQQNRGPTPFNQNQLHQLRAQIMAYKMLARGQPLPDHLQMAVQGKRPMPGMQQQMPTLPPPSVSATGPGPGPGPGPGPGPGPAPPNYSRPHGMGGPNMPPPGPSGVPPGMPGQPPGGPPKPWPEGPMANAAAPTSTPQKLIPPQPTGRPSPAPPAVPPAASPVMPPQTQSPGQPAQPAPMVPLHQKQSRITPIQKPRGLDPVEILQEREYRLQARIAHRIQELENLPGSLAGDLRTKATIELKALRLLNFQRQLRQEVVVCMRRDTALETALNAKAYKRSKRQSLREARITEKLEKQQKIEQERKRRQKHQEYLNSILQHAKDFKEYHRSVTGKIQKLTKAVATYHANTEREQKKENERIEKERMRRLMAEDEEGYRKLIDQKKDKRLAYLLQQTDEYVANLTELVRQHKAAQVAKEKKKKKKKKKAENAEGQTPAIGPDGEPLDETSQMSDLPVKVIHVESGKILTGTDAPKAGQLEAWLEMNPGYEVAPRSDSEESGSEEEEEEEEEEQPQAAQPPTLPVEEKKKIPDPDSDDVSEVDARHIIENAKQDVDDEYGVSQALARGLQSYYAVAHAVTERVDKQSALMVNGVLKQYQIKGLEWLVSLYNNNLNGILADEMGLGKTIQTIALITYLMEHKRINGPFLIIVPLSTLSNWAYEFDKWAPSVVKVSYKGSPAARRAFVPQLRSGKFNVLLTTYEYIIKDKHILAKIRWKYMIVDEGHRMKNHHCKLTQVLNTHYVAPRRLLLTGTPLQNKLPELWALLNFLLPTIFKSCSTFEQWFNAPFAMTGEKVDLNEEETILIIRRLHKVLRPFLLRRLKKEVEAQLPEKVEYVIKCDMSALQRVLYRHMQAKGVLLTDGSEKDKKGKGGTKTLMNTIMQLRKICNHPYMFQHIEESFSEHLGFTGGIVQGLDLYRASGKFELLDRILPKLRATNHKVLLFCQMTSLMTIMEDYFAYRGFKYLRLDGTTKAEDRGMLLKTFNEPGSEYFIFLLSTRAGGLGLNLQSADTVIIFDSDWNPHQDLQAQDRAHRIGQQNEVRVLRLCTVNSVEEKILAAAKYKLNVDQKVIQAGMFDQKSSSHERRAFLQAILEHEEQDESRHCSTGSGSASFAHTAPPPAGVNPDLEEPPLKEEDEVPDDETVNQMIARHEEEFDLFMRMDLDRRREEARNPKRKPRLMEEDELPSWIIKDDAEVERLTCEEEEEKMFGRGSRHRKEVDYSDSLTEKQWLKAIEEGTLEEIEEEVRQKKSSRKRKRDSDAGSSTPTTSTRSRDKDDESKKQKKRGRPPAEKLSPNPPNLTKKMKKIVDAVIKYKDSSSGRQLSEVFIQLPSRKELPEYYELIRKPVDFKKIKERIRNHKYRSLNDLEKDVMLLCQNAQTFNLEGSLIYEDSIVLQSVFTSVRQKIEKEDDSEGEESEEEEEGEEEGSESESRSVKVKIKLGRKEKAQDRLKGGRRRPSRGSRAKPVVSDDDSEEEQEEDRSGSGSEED
experimentalDetails: SMARCA4 HiBiT degradation assay in HeLa cells
Type: cell-based
runParameters: 18 hours incubation, read-out: HeLa-HiBit-SM4 DC50
attributeMeasured: DC50

Example cases with answers are listed next.
[
  {
    "compound": "CC1CN(c2ccc3c(c2)C(=O)N(C2CCC(=O)NC2=O)C3=O)CCC1CN1C[C@@H]2[C@H](C1)[C@H]2CN1CCN2c3cc(-c4ccccc4O)nnc3NC[C@H]2C1 (stereo partly drawn) [Example 197]",
    "DC50": "< 10 nM"
  },
  {
    "compound": "O=C1CCC(N2C(=O)c3ccc(N4CC[C@H](CN5C[C@@H]6[C@H](C5)[C@H]6CN5CCN6c7cc(-c8c(O)cccc8F)nnc7NC[C@H]6C5)[C@@H](F)C4)cc3C2=O)C(=O)N1 (stereo partly drawn)",
    "DC50": "10 to 100 nM"
  },
  {
    "compound": "O=C1CCC(N2C(=O)c3ccc(N4CC[C@H](CN5C[C@@H]6[C@H](C5)[C@H]6CN5CCN6c7cc(-c8cc(F)ccc8O)nnc7NC[C@H]6C5)[C@@H](F)C4)cc3C2=O)C(=O)N1 (stereo partly drawn) [Example 278]",
    "DC50": "< 10 nM"
  },
  {
    "compound": "O=C1CCC(N2C(=O)c3ccc(Nc4cccc(N5CCC(N6CCN7c8cc(-c9ccccc9O)nnc8NC[C@H]7C6)CC5)c4)cc3C2=O)C(=O)N1 (stereo partly drawn)",
    "DC50": "10 to 100 nM"
  }
]

Next item in the queue.
Consider the compound O=C1CCC(N2C(=O)c3ccc(N4C[C@H]5CC(N6CCC(CN7CCN8c9cc(-c%10ccccc%10O)nnc9NC[C@H]8C7)CC6)[C@H]5C4)cc3C2=O)C(=O)N1 (stereo partly drawn) and give its recorded DC50.
< 10 nM
